Each recorded value in this set is attributed to ChEMBL document CHEMBL4627339.

system: Calf thymus DNA; experiment: Binding affinity to calf thymus DNA assessed as binding constant by UV-Vis absorption spectroscopic method; type: nucleic-acid assay; conditions: Bos taurus
measure-name: KB (×10⁴ /M)

chem-smiles: Cc1ccc2c(-c3cc[n+](C)cc3)c3ccccc3c(-c3cc[n+](C)cc3)c2c1
KB (×10⁴ /M): 6.2

a: C[n+]1ccc(-c2c3ccccc3c(-c3cc[n+](C)cc3)c3ccccc23)cc1
b: CCc1ccc2c(-c3cc[n+](C)cc3)c3ccccc3c(-c3cc[n+](C)cc3)c2c1
Field: entry with larger KB (options a / b ). Mark your selection by writing its label.
a

###

test system: Calf thymus DNA; experiment: Binding affinity to calf thymus DNA assessed as hypochromism at 50 uM by UV-Vis spectroscopy relative to control; type: nucleic-acid assay; conditions: Bos taurus
measure-name: Activity (%)

Record excerpt, results attached:
chem-smiles: C[n+]1ccc(-c2c3ccccc3c(-c3cc[n+](C)cc3)c3ccccc23)cc1
measure-name: Activity
unit-label: %
experimental-value: 74
--
chem-smiles: CCc1ccc2c(-c3cc[n+](C)cc3)c3ccccc3c(-c3cc[n+](C)cc3)c2c1
measure-name: Activity
unit-label: %
experimental-value: 55
--
chem-smiles: Cc1ccc2c(-c3cc[n+](C)cc3)c3ccccc3c(-c3cc[n+](C)cc3)c2c1
measure-name: Activity
unit-label: %
experimental-value: 41
--
chem-smiles: C[n+]1cc(-c2c3ccccc3c(-c3cc4ccccc4[n+](C)c3)c3ccccc23)cc2ccccc21
measure-name: Activity
unit-label: %
experimental-value: 56

A: C[n+]1cccc(-c2c3ccccc3c(-c3ccc[n+](C)c3)c3ccccc23)c1
B: C[n+]1ccc(-c2c3ccccc3c(-c3cc[n+](C)cc3)c3cc(C(C)(C)C)ccc23)cc1
Hi there, can you help? I need to know whether A or B has lower measured Activity. Mark your selection by writing its label.
A
(A: 41%, B: 66%)
